All values here come from the NIST ThermoML archive (doi:10.1021/je0601208).

- methodNotes: xn = mol fraction of the nth substance listed
- assayContext: 298.15 K, x1 = 0.5
quantityKind: surface tension liquid-gas (mN/m)

Query: Need surface tension liquid-gas of CCOC(=O)Cc1ccccc1 [ethyl phenylacetate] + CCO , thanks.
Response: 28.5

Query: Need surface tension liquid-gas of CCCCCCCC(=O)OCC [ethyl octanoate] + CCO , thanks.
Response: 25.3

Query: Need surface tension liquid-gas of CCCC(=O)OCCC(C)C [3-methylbutyl butanoate] + CCO , thanks.
Response: 23.8

Query: Need surface tension liquid-gas of CC(=O)OCCC(C)C [3-methylbutyl ethanoate] + CCO , thanks.
Response: 23.3

Query: Need surface tension liquid-gas of CCCCCC(=O)OCC [ethyl hexanoate] + CCO , thanks.
Response: 24.4

Query: Need surface tension liquid-gas of CCOC(=O)c1ccccc1 [ethyl benzoate] + CCO , thanks.
Response: 28.7
